molecular target: Serine/threonine-protein kinase SMG1 (Homo sapiens); assay: Inhibition of human SMG1 using glutathione S-transferase-p53 as substrate by DELFIA
test_readout: IC50 (µM)
Supply the numeric figure in µM, leaving out any unit text.

API: value(readout= IC50, system= Serine/threonine-protein kinase SMG1 (Homo sapiens), query= CNC(=O)Nc1ccc(-c2nc(N3CC4CCC(C3)O4)c3cnn(C4CCC5(CC4)OCCO5)c3n2)cc1 )
1.25

---

test system: MDA-MB-361; test: Antiproliferative activity against human MDA-MB-361 cells assessed as cell growth inhibition incubated for 1 days by MTS assay; assay type: functional, cell-based; details: MDA-MB-361, 24 h
test_readout: IC50

CC(=O)O[C@H]1C(=O)[C@@]2(C)[C@H]([C@H](OC(=O)c3ccccc3)[C@]3(O)C[C@H](OC(=O)[C@H](O)[C@@H](NC(=O)c4ccccc4)c4ccccc4)C(C)=C1C3(C)C)[C@]1(OC(C)=O)CO[C@@H]1C[C@@H]2O    > 0.15 µg/mL

As a next step, examine the molecule that follows.
Item CNC(=O)Nc1ccc(-c2nc(N3CC4CCC(C3)O4)c3cnn(C4CCC5(CC4)OCCO5)c3n2)cc1 with MDA-MB-361 - IC50?
20 µM

---

target: PI3K p110 beta/p85 alpha (Homo sapiens, UniProt P42338); assay: Inhibition of p110beta/p85alpha (unknown origin) using PIP2 as substrate measured after 15 to 30 mins by fluorescence polarization assay
Sequence (P27986 whole entry): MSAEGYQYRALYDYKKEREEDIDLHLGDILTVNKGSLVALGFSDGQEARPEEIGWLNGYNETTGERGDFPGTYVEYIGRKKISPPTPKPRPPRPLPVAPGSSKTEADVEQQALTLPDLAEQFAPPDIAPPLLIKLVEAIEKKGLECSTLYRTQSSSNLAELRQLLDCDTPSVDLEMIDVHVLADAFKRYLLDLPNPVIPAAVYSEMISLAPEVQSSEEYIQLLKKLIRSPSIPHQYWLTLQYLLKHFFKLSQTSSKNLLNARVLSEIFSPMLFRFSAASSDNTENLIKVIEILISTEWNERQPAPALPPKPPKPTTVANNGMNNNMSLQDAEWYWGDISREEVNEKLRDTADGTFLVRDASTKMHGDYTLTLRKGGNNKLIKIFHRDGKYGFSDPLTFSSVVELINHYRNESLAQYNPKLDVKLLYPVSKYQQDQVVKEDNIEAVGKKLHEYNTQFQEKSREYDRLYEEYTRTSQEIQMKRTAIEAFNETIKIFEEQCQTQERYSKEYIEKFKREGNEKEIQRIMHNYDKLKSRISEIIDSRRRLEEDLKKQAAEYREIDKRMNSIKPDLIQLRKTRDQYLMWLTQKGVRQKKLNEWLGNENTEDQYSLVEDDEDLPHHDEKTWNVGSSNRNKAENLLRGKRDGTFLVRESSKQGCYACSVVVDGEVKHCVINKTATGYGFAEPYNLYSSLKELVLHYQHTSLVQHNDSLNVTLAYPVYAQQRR
Sequence (P42338 whole entry): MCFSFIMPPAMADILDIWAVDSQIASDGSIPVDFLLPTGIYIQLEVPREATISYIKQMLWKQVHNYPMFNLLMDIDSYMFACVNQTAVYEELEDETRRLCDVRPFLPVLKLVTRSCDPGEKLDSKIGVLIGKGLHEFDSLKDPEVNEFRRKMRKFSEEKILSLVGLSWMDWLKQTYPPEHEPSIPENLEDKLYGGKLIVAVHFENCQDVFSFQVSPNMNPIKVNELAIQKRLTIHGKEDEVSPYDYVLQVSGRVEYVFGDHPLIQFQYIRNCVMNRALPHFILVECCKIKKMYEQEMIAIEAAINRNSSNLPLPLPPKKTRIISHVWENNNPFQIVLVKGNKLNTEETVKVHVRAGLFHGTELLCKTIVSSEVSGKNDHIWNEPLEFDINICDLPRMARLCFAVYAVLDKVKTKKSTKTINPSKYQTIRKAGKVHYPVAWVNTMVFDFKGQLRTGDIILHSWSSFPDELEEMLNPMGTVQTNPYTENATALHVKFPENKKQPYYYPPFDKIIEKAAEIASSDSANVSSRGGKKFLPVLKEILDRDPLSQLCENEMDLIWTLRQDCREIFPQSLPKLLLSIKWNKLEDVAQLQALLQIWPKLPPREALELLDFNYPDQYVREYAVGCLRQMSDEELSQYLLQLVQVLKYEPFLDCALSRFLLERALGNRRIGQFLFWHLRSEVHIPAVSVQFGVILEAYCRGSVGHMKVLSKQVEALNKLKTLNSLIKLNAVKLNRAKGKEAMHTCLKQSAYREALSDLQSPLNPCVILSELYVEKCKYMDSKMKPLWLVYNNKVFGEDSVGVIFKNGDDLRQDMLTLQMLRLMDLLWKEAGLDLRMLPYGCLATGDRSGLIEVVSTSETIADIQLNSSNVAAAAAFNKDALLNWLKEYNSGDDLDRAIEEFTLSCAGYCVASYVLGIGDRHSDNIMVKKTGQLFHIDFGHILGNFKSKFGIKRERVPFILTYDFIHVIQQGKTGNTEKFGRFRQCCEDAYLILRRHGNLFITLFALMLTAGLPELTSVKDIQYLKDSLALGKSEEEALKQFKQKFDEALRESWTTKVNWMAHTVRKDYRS
pIC50: −log10 of the molar value.
test_readout: pIC50

Query: pIC50; subject: CNC(=O)Nc1ccc(-c2nc(N3CC4CCC(C3)O4)c3cnn(C4CCC5(CC4)OCCO5)c3n2)cc1
< 5.00

---

biological target: Serine/threonine-protein kinase mTOR (Homo sapiens); assay: Inhibition of human full-length Flag-tagged mTOR expressed in HEK293 cells using His6-S6K as substrate measured after 2 hrs in presence of ATP by DELFIA
test_readout: IC50 (nM)
The figure you give is taken to be in nM; do not add the unit.

Requested read-out: IC50. Entry: CNC(=O)Nc1ccc(-c2nc(N3CC4CCC(C3)O4)c3cnn(C4CCC5(CC4)OCCO5)c3n2)cc1
0.19

---

tested on: U-87 MG; assay: Antiproliferative activity against human U-87MG cells assessed as cell growth inhibition incubated for 24 hrs by MTS assay; type: functional, cell-based, U-87MG ATCC
test_readout: IC50 (nM)
Report only the number, with the unit nM understood.

Item CNC(=O)Nc1ccc(-c2nc(N3CC4CCC(C3)O4)c3cnn(C4CCC5(CC4)OCCO5)c3n2)cc1 with U-87 MG - IC50?
65
